The measured values listed here are drawn from ChEMBL document CHEMBL2346633.

- experimental-system: Cannabinoid receptor 1 (Homo sapiens, UniProt P21554)
- Sequence (P21554 whole entry, looked up): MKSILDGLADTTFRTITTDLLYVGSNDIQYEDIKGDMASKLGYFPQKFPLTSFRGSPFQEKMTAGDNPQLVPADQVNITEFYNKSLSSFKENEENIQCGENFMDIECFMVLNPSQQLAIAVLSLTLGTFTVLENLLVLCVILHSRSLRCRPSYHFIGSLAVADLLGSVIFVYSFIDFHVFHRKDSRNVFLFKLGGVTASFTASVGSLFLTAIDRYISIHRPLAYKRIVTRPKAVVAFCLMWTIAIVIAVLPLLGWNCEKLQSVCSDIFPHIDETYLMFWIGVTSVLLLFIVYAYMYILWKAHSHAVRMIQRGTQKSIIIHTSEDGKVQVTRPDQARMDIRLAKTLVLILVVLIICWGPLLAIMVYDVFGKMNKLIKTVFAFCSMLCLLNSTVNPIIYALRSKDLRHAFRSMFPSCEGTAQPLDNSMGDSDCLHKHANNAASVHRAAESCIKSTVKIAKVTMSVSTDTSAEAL
- assay-method-text: Displacement of [H3]-CP-55940 from human recombinant CB1 receptor expressed in CHO cells
pKi: −log10 of the molar value.
observed-property: pKi

Sample records with pKi:
// query I would be grateful if you could share the reported pKi for "CCCCn1c(C)c(C)cc(NC(=O)Cc2ccccc2)c1=O" .
// result < 5.30

// query Would you kindly share the measured pKi for "CCCCn1c(C)c(C)cc(NC(C)=O)c1=O" ?
// result < 5.30

// query For CCN1C(=O)C(Sc2nc3ccccc3o2)c2ccccc2C1C (centres undefined) , what is its reported pKi?
// result < 5.30

Please turn your attention to the following entry.
// query GET /values?readout=pKi&item= "CCCCn1c(C)c(C)cc(NC(=O)c2ccc3ccccc3c2)c1=O"
// result < 5.30
